- Experimental Target: Procathepsin L (Homo sapiens) (UniProt P07711)
- Sequence (P07711 114-333 limits assumed): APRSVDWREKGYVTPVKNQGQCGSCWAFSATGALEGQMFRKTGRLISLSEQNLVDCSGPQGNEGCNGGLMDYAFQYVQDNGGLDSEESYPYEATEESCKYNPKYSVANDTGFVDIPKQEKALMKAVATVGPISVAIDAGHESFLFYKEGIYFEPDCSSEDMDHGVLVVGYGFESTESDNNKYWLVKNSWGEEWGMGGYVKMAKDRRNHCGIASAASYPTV
- Test Name: Inhibition of human cathepsin L using Z-Phe-ArgpNA as substrate assessed as residual activity at 50 uM by spectrophotometric analysis relative to control
Answer each item with its documented Activity.

Solved entries (count: 8):
Input Smiles	Activity
O=[N+]([O-])c1ccc2nc(-c3c[nH]c4ccccc34)cc(-c3ccccc3)c2c1	> 90%
COc1ccc(-c2cc(-c3ccccc3)c3cc([N+](=O)[O-])ccc3n2)cc1	> 90%
Cc1ccc(-c2cc(-c3ccccc3)c3cc([N+](=O)[O-])ccc3n2)cc1	> 90%
O=[N+]([O-])c1ccc2nc(-c3ccc(O)cc3)cc(-c3ccccc3)c2c1	> 90%
O=[N+]([O-])c1ccc2nc(-c3ccccc3)cc(-c3ccccc3)c2c1	> 90%
Clc1ccc2nc(-c3c[nH]c4ccccc34)cc(-c3ccccc3)c2c1	> 90%
Oc1ccc(-c2cc(-c3ccccc3)c3cc(Cl)ccc3n2)cc1	> 90%
COc1ccc(-c2cc(-c3ccccc3)c3cc(Cl)ccc3n2)cc1	> 90%

Batch of 4 molecules: report Activity for each.
1. Clc1ccc2nc(-c3ccccc3)cc(-c3ccccc3)c2c1
2. O=[N+]([O-])c1ccc2nc(-c3cccc(Br)c3)cc(-c3ccccc3)c2c1
3. Clc1ccc2nc(-c3cccc(Br)c3)cc(-c3ccccc3)c2c1
4. Cc1ccc(-c2cc(-c3ccccc3)c3cc(Cl)ccc3n2)cc1

Result:
1: > 90%; 2: > 90%; 3: > 90%; 4: > 90%
